# method-description: CCTE_Shafer_MEA_dev_correlation_coefficient_mean: CCTE's Neural Network Formation Assay for Mean Correlation Coefficient, Shafer Lab (AID 2284093)
Activity calls are given as the source filed them. How the source made its calls: active means hit-call score of the fitted dose curve at least 0.9, where 1 is the maximum; inactive means score below 0.9.
One label from this list, please: active, inactive

Completed entries (count: 8):
What call does the record list for FC(F)(F)C(F)(F)C(F)(F)C(F)(F)C(F)(F)C(F)(F)CC1CO1 (configuration not stated) ? inactive

What call does the record list for OC[C@@H](O)[C@@H](O)[C@H](O)[C@@H](O)CO ? inactive

What call does the record list for CC(CCl)OP(=O)(OC(C)CCl)OC(C)CCl (configuration not stated) ? inactive

What call does the record list for FC(F)(F)C(F)(F)C(F)(F)C(F)(F)C(F)(F)CCI ? active

What call does the record list for O=C(O)C(F)(F)C(F)(F)C(F)(F)C(F)(F)C(F)(F)C(F)(F)C(F)(F)C(F)(F)C(F)(F)C(F)F ? inactive

What call does the record list for O=S(=O)(OCC(F)F)C(F)(F)F ? inactive

What call does the record list for O=S(=O)(OCCOC(F)(F)F)C(F)(F)F ? inactive

What call does the record list for OCC(F)(F)C(F)(F)C(F)(F)F ? inactive

More entries:
What call does the record list for CC(C)(C)C(=O)CC(=O)C(F)(F)C(F)(F)C(F)(F)F ? active

What call does the record list for NC(=O)C(F)(F)C(F)(F)C(F)(F)C(F)(F)F ? inactive

What call does the record list for O=C(O)C(F)(F)C(F)(F)C(F)F ? inactive

What call does the record list for O=C(O)C(F)(F)C(F)(F)C(F)(F)F ? inactive

====

# method-description: CCTE_Padilla_ZF_Score.Any: CCTE's 144 Hour Post-fertilization zebrafish Assay Score for Any Mortality or Malformation, Padilla Lab (AID 2284416)
Calls of active or inactive are those of the source. How the source made its calls: active means hit-call score of the fitted dose curve at least 0.9, where 1 is the maximum; inactive means score below 0.9.
property-name: AC50

Worked examples, 5 compounds total:
Retrieve AC50 measured for OCC(F)(F)C(F)(F)C(F)(F)F and print it. inactive

Retrieve AC50 measured for FC(F)(F)C(F)(F)C(F)(F)C(F)(F)C(F)(F)C(F)(F)C(F)(F)Br and print it. inactive

Retrieve AC50 measured for FC(F)(F)C(F)(F)C(F)(F)N(C(F)(F)C(F)(F)C(F)(F)F)C(F)(F)C(F)(F)C(F)(F)F and print it. inactive

Retrieve AC50 measured for O=C(Cl)C(F)(F)C(F)(F)C(F)(F)C(F)(F)C(F)(F)C(F)(F)C(F)(F)C(F)(F)F and print it. 29.4 µM (active)

Retrieve AC50 measured for C=CC(F)(F)C(F)(F)C(F)(F)C(F)(F)C(F)(F)C(F)(F)C(F)(F)C(F)(F)F and print it. inactive

More entries:
Retrieve AC50 measured for FC(F)(F)C(F)(F)C(F)(F)C(F)(F)CCI and print it. inactive

Retrieve AC50 measured for FC(F)(Br)C(F)(F)C(F)(F)C(F)(F)C(F)(F)C(F)(F)Br and print it. inactive

Retrieve AC50 measured for O=S(=O)(O)C(F)(F)C(F)(F)C(F)(F)C(F)(F)C(F)(F)C(F)(F)C(F)(F)F and print it. 21.3 µM (active)

Retrieve AC50 measured for FC(F)(F)C(F)(F)C(F)(F)C(F)(F)C(F)(F)C(F)(F)C(F)(F)I and print it. 12.4 µM (active)

Retrieve AC50 measured for N=C(N)C(F)(F)C(F)(F)C(F)(F)C(F)(F)C(F)(F)C(F)(F)C(F)(F)F and print it. 22.2 µM (active)

Retrieve AC50 measured for O=C(O)C(F)(F)C(F)(F)C(F)F and print it. inactive

Retrieve AC50 measured for OCC(F)(F)C(F)(F)C(F)(F)C(F)F and print it. inactive

Retrieve AC50 measured for FC(F)(F)C(F)(F)C(F)(F)C(F)(F)C(F)(F)C(F)(F)C(F)(F)C(F)(F)F and print it. inactive

Retrieve AC50 measured for FC(F)(F)C(F)(F)CNCC(F)(F)C(F)(F)F and print it. 0.00326 µM (active)

Retrieve AC50 measured for OCC(F)(F)C(F)(F)C(F)(F)C(F)(F)C(F)(F)C(F)(F)F and print it. 80.5 µM (active)

Retrieve AC50 measured for O=C(O)C(F)(F)C(F)(F)OC(F)(F)F and print it. inactive
